Please respond with reported HEK-Blue activity, No BP, DF-100,000 for every item in the list.
- Measurement Target: T1, IL-18 receptors on HEK-Blue IL-18 reporter cells (UniProt Q13478 19-541; O95256 20-599, limits assumed); note: unit not given here
- T1 sequence (looked up) 1: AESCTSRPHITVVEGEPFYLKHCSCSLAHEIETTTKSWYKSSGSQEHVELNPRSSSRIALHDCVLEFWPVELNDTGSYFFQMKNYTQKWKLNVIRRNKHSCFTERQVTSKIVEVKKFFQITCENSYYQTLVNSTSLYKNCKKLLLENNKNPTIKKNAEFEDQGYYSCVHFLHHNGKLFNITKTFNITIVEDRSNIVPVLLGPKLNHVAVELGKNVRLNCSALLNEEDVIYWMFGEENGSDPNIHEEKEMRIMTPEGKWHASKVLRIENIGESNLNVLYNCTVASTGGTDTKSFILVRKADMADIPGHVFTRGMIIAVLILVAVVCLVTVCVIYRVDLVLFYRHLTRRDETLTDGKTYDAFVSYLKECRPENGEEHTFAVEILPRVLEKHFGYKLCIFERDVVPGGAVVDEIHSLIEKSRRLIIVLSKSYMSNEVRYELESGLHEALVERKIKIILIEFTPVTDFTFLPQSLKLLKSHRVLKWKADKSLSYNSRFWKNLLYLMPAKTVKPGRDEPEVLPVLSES
- T1 sequence (looked up) 2: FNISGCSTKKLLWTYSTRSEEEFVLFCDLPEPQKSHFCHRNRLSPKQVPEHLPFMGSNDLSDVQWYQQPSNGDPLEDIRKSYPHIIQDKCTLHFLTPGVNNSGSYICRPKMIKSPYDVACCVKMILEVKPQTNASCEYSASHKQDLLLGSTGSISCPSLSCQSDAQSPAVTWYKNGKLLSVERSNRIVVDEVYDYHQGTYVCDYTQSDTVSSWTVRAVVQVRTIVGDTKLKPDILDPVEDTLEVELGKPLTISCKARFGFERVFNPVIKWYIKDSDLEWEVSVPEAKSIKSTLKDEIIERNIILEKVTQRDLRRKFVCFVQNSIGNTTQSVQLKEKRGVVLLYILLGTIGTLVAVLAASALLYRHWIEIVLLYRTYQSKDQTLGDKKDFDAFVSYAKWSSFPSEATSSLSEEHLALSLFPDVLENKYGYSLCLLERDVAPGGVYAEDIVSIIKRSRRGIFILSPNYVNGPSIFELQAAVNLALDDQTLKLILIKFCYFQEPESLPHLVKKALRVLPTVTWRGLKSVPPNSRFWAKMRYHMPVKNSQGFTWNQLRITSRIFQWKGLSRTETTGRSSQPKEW
- Procedure Text: cell-based or functional assay
Answers are plain numbers.

Below, each entry is followed by its recorded HEK-Blue activity, No BP, DF-100,000 result.
Q: // returns reported HEK-Blue activity, No BP, DF-100,000 for input yeast display IL-18 variant K53N, S55I (ligand) YFGKLESKLSVIRNLNDQVLFIDQGNRPLFEDMTDSDMRDNAPRTIFIISMYNDIQPRGMAVTISVKSEKISTLSSENKIISFKEMNPPDNIKDTKSDIIFFQRSVPGHDNKMQFESSSYEGYFLASEKERDLFKLILKKEDELGDRSIMFTVQNED
A: 0.11

Q: Reported HEK-Blue activity, No BP, DF-100,000 for yeast display IL-18 variant L5W, S7Y, K53H, S55M (ligand) YFGKWEYKLSVIRNLNDQVLFIDQGNRPLFEDMTDSDMRDNAPRTIFIISMYHDMQPRGMAVTISVKSEKISTLSSENKIISFKEMNPPDNIKDTKSDIIFFQRSVPGHDNKMQFESSSYEGYFLASEKERDLFKLILKKEDELGDRSIMFTVQNED : what is it?
A: 0.16

// switching to the query binder
Q: So what's the measured HEK-Blue activity, No BP, DF-100,000 for this one? yeast display IL-18 variant K53S, S55K (ligand) YFGKLESKLSVIRNLNDQVLFIDQGNRPLFEDMTDSDMRDNAPRTIFIISMYSDKQPRGMAVTISVKSEKISTLSSENKIISFKEMNPPDNIKDTKSDIIFFQRSVPGHDNKMQFESSSYEGYFLASEKERDLFKLILKKEDELGDRSIMFTVQNED
A: 1.35
